Target: biotinylated labeled human GPC3 protein (produced in-house) (human, UniProt P51654 25-559, limits assumed, biotinylated (Dojindo, Cat. No. LK03); sites not stated)
Experiment: ELISA, biotinylated human GPC3 protein
Lab note: anything with OD450 at 0.53 nM at or over 2 OD450 counts as t; the rest go in f.

// below: answered binders
BINDER	GROUP
hAb001H1L1a (antibody, human IgG1, V domains shown, Humanized F2.169.2; VH H1 + VL L1a; expressed as human IgG1) VH: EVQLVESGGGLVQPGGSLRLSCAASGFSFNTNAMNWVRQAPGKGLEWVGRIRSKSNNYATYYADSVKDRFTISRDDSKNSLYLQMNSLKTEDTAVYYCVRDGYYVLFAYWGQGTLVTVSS VL: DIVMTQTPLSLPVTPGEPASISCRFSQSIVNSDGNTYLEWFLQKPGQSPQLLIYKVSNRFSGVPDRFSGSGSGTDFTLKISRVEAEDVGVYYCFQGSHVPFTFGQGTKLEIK	t
hAb001H2L1b (antibody, human IgG1, V domains shown, Humanized F2.169.2; VH H2 + VL L1b; expressed as human IgG1) VH: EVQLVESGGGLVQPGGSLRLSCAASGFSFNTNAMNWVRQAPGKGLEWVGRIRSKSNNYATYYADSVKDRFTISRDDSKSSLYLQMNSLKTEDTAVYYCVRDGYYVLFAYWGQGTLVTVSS VL: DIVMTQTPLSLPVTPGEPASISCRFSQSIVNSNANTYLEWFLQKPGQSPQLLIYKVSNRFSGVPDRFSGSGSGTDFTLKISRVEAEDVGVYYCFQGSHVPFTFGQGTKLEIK	t
hAb006LH3L1b (antibody, human IgG1, V domains shown, Humanized F3.38.7; VH H3 + VL L1b; expressed as human IgG1) VH: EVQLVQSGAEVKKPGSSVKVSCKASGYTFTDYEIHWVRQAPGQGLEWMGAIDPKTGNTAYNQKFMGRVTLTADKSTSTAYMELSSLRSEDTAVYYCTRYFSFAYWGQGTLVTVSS VL: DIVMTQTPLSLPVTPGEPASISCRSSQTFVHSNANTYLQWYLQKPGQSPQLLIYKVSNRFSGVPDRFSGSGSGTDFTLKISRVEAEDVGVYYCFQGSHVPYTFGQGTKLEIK	t

Okay, now this binder:
Prompt: Decide: OD450 at 0.53 nM of hAb006LH1L1a (antibody, human IgG1, V domains shown, Humanized F3.38.7; VH H1 + VL L1a; expressed as human IgG1) VH: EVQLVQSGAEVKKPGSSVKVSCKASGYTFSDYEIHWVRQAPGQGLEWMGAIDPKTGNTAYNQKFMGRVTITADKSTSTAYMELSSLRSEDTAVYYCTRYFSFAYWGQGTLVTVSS VL: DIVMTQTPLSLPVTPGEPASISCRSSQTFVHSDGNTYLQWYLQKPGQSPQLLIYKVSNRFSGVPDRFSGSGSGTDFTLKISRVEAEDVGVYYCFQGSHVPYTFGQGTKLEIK >= 2 OD450?
Completion: f
